Parameter Activity: see the listing below.
tested.target: Dual specificity tyrosine-phosphorylation-regulated kinase 1B (Homo sapiens) (UniProt Q9Y463)
Sequence (Q9Y463 whole entry, looked up): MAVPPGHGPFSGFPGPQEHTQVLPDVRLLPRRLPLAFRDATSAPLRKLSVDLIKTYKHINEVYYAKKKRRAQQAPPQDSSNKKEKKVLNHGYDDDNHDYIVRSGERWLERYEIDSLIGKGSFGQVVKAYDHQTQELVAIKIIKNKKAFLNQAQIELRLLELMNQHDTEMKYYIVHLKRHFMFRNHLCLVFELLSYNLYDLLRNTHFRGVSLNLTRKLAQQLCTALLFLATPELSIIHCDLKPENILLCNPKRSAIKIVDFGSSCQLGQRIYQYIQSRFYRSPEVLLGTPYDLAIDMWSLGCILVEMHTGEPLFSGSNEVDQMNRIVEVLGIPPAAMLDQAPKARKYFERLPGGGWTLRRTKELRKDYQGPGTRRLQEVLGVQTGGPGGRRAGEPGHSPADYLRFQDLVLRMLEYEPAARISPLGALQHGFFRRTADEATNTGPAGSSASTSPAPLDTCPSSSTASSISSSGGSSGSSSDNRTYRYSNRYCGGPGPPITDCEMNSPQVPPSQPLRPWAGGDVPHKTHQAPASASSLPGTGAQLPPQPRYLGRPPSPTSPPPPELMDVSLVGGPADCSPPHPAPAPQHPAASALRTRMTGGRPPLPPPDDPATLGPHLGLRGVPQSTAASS
assay.notes: Inhibition of human GST-tagged DYRK1B extracted from Escherichia coli assessed as residual activity using gamma-32 ATP and KKISGRLSPIMTEQ as substrate at 1 uM by radiometric kinase assay relative to control
condition.context: INHIBITOR

These recorded examples may help you get a feel for the data.
chemical.smiles	Activity
COc1ccc2c(c1)C(=O)c1sc3ccccc3c1-2	< 5%
COc1cccc2c1-c1c(sc3ccccc13)C2=O	< 5%
COc1ccc2c(c1)-c1c(sc3ccc(OC)cc13)C2=O	< 5%
O=C1c2ccccc2-c2c1sc1ccc(O)cc21	< 5%
COc1ccc2sc3c(c2c1)-c1ccccc1C3=O	7%

Bench note: what Activity did `COc1ccc2c(c1)C(=O)c1sc3ccc(F)cc3c1-2` show?
< 5%

Bench note: what Activity did `COc1cccc2c1C(=O)c1sc3ccccc3c1-2` show?
< 5%

Bench note: what Activity did `COc1ccc2c(c1)-c1c(sc3ccccc13)C2=O` show?
< 5%

Bench note: what Activity did `COc1ccc2c(c1)C(=O)c1sc3ccc(OC)cc3c1-2` show?
< 5%

* * *

tested.target: Serine/threonine-protein kinase haspin (Homo sapiens)
assay.notes: Inhibition of GSG2 (haspin) (unknown origin) by Adapta kinase activity assay relative to control
measurement.type: IC50 (nM)
A number alone suffices; assume nM.

Bench note: what IC50 did `COc1ccc2c(c1)C(=O)c1sc3ccc(O)cc3c1-2` show?
28

* * *

Parameter t1/2: see the listing below.
assay.notes: Metabolic stability in rat liver microsomes assessed as half life
Assay type: ADME, Microsome
A number alone suffices; assume min.

chemical.smiles	t1/2 [min]
COc1ccc2c(c1)-c1c(sc3ccccc13)C2=O	33.7
COc1cccc2c1-c1c(sc3ccccc13)C2=O	6.5

Bench note: what t1/2 did `COc1ccc2c(c1)C(=O)c1sc3ccc(OC)cc3c1-2` show?
18.9

Bench note: what t1/2 did `COc1ccc2c(c1)C(=O)c1sc3ccc(F)cc3c1-2` show?
16.8

Bench note: what t1/2 did `COc1ccc2c(c1)C(=O)c1sc3ccccc3c1-2` show?
24.4

* * *

tested.target: Dual specificity protein kinase CLK4 (Homo sapiens, UniProt Q9HAZ1)
Sequence (Q9HAZ1 whole entry): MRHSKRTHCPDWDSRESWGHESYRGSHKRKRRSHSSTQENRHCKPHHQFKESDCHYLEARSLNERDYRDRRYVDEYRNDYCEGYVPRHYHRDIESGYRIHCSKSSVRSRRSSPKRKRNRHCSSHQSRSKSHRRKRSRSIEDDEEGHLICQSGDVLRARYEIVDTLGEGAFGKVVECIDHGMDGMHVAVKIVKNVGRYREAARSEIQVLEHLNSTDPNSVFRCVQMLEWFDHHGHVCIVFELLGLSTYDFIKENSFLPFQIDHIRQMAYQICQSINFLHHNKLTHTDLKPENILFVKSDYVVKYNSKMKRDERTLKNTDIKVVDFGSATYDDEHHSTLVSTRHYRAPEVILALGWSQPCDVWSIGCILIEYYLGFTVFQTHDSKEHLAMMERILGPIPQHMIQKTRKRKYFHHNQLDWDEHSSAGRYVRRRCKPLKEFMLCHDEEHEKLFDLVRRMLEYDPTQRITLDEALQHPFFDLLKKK
assay.notes: Inhibition of CLK4 (unknown origin) by LanthaScreen kinase binding assay relative to control
measurement.type: IC50 (nM)
A number alone suffices; assume nM.

Notebook: pull reported IC50 for Dual specificity protein kinase CLK4 (Homo sapiens, UniProt Q9HAZ1), entry `COc1ccc2c(c1)C(=O)c1sc3ccc(O)cc3c1-2`
14

* * *

tested.target: Serine/threonine-protein kinase haspin (Homo sapiens, UniProt Q8TF76)
Sequence (Q8TF76 whole entry): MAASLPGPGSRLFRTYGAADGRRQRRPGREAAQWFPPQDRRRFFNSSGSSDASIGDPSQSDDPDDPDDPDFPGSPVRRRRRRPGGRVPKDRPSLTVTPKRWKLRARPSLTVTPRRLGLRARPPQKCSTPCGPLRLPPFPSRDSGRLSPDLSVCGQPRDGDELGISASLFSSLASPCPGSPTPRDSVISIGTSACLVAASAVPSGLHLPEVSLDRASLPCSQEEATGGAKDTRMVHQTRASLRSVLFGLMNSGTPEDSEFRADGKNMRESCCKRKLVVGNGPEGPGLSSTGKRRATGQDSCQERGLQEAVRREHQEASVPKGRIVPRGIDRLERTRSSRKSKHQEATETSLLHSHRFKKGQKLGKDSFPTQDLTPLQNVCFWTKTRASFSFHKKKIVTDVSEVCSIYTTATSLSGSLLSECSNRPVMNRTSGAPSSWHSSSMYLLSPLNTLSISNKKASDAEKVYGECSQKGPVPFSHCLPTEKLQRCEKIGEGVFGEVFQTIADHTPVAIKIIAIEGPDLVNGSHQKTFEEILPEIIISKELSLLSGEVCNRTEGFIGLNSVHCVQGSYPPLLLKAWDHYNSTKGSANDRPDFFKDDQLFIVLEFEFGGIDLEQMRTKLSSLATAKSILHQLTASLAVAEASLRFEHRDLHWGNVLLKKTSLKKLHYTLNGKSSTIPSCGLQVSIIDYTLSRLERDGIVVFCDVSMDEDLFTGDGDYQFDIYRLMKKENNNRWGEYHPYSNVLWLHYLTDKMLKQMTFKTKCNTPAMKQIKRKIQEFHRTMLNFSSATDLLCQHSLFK
assay.notes: Inhibition of GSG2 (haspin) (unknown origin) by radiometric assay relative to control
measurement.type: pIC50
pIC50 is defined as minus the log10 of a concentration measured in mol/L.

Bench note: what pIC50 did `COc1ccc2c(c1)C(=O)c1sc3ccc(O)cc3c1-2` show?
7.12

* * *

tested.target: Dual specificity protein kinase CLK4 (Homo sapiens)
assay.notes: Inhibition of CLK4 (unknown origin) by radiometric assay relative to control
measurement.type: IC50 (µM)
A number alone suffices; assume µM.

Bench note: what IC50 did `COc1ccc2c(c1)C(=O)c1sc3ccc(O)cc3c1-2` show?
0.026

* * *

tested.target: Dual specificity tyrosine-phosphorylation-regulated kinase 1B (Homo sapiens)
assay.notes: Inhibition of human GST-tagged DYRK1B extracted from Escherichia coli assessed as residual activity using gamma-32 ATP and KKISGRLSPIMTEQ as substrate at 1 uM by radiometric kinase assay relative to control
Parameter Activity: see the listing below.
A number alone suffices; assume %.

These recorded examples may help you get a feel for the data.
chemical.smiles	measurement.type	unit	reported
COc1cccc2c1C(=O)c1sc3ccc(O)cc3c1-2	Activity	%	78
COc1ccc2c(c1)C(=O)c1sc3ccc(F)cc3c1-2	Activity	%	78
COc1ccc2c(c1)-c1c(sc3ccc(O)cc13)C2=O	Activity	%	89

Bench note: what Activity did `COc1ccc2c(c1)C(=O)c1sc3ccc(O)cc3c1-2` show?
93

Bench note: what Activity did `COc1ccc2sc3c(c2c1)-c1c(OC)cccc1C3=O` show?
68
